# Tested on: M. catarrhalis ATCC 43627
# Method: Agar Dilution Method MIC, M. catarrhalis ATCC 43627
# Assay type: cell-based, Morexella catarrhalis
# Particulars: Moraxella catarrhalis, ATCC43627, Mueller Hinton Agar, 35° Celsius, 20 hours, read-out: Minimum Inhibitory Concentration (MIC in μg/ml)
Endpoint name: MIC (µg/mL)
Answer in µg/mL, number only, no unit symbol.

Substance smiles	Recorded result
CC(=S)NC[C@H]1CN(c2ccc(N3CCN(C(=S)c4ccc(C)s4)CC3)c(F)c2)C(=O)O1	2
CC(=S)NC[C@H]1CN(c2ccc(N3CCN(C(=S)c4ccc(Cl)s4)CC3)c(F)c2)C(=O)O1	2
CC(=S)NC[C@H]1CN(c2ccc(N3CCN(C(=S)c4cccs4)CC3)c(F)c2)C(=O)O1	1
CC(=S)NC[C@H]1CN(c2ccc(N3CCN(C(=S)Cc4cccs4)CC3)c(F)c2)C(=O)O1	2
CC(=S)NC[C@H]1CN(c2ccc(N3CCN(C(=S)c4ccc([N+](=O)[O-])o4)CC3)c(F)c2)C(=O)O1	1
CC(=S)NC[C@H]1CN(c2ccc(N3CCN(C(=S)C4CC4)CC3)c(F)c2)C(=O)O1	1

Shifting focus to the compound that follows.
According to the records, this compound CC(=S)NC[C@H]1CN(c2ccc(N3CCN(C(=S)c4ncc[nH]4)CC3)c(F)c2)C(=O)O1 displays MIC of 1

Where do these numbers come from? They come from patent US7217726B2.
